# Tested on: K-562 leukemia
# Experimental Details: NCI tumour cell line growth inhibition, 48 h
Measured Quantity: GI50

Examples from the recorded data:
COc1cccc(/C=N/[N-]C(=O)c2ccncc2)c1[O-].COc1cccc(/C=N/[N-]C(=O)c2ccncc2)c1[O-].[O]=[U](=[O])([OH2+])[OH2+] : 5290 nM
COc1cc(/C=C\c2cc(OC)c(OC)c(OC)c2)cc(N/C=C\C(=O)c2c[nH]c3ccccc23)c1OC : 1540 nM
CCN(CC)CCCCCCNc1cccc2cc(Br)cnc12 : 2080 nM

Supply recorded GI50 for `Nc1cc2c(cc1Br)[nH]c(=O)c1ccccc12` here.
5780 nM

Assign GI50 to the following record: `COc1cc2c(Nc3cc(Cl)c(OC)c(Cl)c3)c(C#N)cnc2cc1OCCCN1CCN(C)CC1`
574 nM

State, in one line, measured GI50 of `CCCC/C(=C\C1=C(C)C(=O)C(OC)=C(OC)C1=O)C(=O)O`
50100 nM

Return GI50 for the following compound: `Cc1cc(N/N=C/c2ccccn2)nc2ccccc12`
422 nM

Please report GI50 for the following compound: `c1coc(-c2c3ccc(=[N+]4CCCCC4)cc-3oc3cc(N4CCCCC4)ccc23)c1`
54.1 nM

====

# Test system: SNB-19 CNS
# Experimental Details: NCI tumour cell line growth inhibition, 48 h
Measured Quantity: TGI (µM)
Entry rule: numbers only, all in µM.

Nc1ccc(-c2nc3ccccc3s2)cc1C(F)(F)F : 33.2

Would you kindly look at the next entry?
Look up and state reported TGI for `CC1(C)CN=C(NN=C(/C=C/c2ccc(C(F)(F)F)cc2)/C=C/c2ccc(C(F)(F)F)cc2)NC1`
3.18

====

# Tested on: NCI/ADR-RES ovarian
# Experimental Details: NCI tumour cell line growth inhibition, 48 h
Each item that follows carries a reported TGI.

Provide one value: measured TGI of NC(CC1=CS(=O)(=O)c2ccc(Cl)cc21)C(=O)O (stereo not drawn)
> 100 µM

Report measured TGI; entry is O=C(CNc1c(Cl)cccc1Cl)NC1C=Cc2ccc(S(=O)(=O)Nc3c(Cl)cccc3Cl)cc2C1=O (stereo not drawn)
> 100 µM

Please report TGI for the following compound: CC(C)(C)[Si](C)(C)OC1[C@@H](CNC(=O)NC(=O)CCl)O[C@@H](n2cnc3c(N)ncnc32)[C@H]1O[Si](C)(C)C(C)(C)C (stereo partly drawn)
3.11 µM

Please look at this compound and report its TGI: `O=C1c2ccccc2-c2c1c1ccccc1c(=O)n2CCN1CCNCC1`
11.4 µM

====

# Tested on: NCI-H23 lung
# Experimental Details: NCI tumour cell line growth inhibition, 48 h
Measured Quantity: TGI

Answered examples (3):
Nc1c(-c2ccccc2-c2c(N)[n+]([O-])c3ccccc3[n+]2[O-])[n+]([O-])c2ccccc2[n+]1[O-] : > 100 µM
Nc1cc(Br)c(-c2nnc(CCC(=O)c3nc4ccccc4[nH]3)o2)c(Br)c1 : 36.4 µM
CC(C)=CCC/C(C)=C/COC(C)(C)C1=CCC(C)CC1 (stereo not given) (tested in a mixture with another compound) : > 100 µM

In the following, a different compound is considered.
Hello, please tell me recorded TGI for this one: `COc1cc(/C=C2\[C@H]3c4c(c(OC)c(C)c(OC)c4OC)CC(C(=O)N2Cc2ccccc2)N3C)c(OC)c(C)c1OC`
> 100 µM

====

Reported TGI is given for each of the following compounds.
# Test system: OVCAR-4 ovarian
# Experimental Details: NCI tumour cell line growth inhibition, 48 h

CCOP(=O)(OCC)C(C(=O)OC)C(=O)C(=O)Nc1ccc(Cl)cc1Cl (stereo not given) : > 100 µM
Cn1cc(-c2csc(-c3cn(CCCCN4CCCCC4)c4ccccc34)n2)c2cccnc21 : 4.04 µM

Consider the compound `Cc1ccc(CC[P+](=O)CCc2ccc(C)nc2)cn1` and give its recorded TGI.
> 100 µM

Give reported TGI value for CC(=O)OCC1OC(n2cc(I)c(=O)[nH]c2=O)C(OC(C)=O)C(OC(C)=O)C1OC(C)=O (stereo not given)
> 100 µM

Recall and state the measured TGI for O=C(CN(c1ccccc1)c1ccccc1)N1c2ccccc2C2C=CC=CC21 (stereo not given) .
> 100 µM

Query TGI for `Cn1ccnc1C(O)(c1nccn1C)c1nccn1C`
> 100 µM

Could you please provide reported TGI for `C[C@]12CC[C@@H]3c4ccc(O)cc4CC[C@H]3[C@@H]1C/C(=C\c1ccncc1)[C@@H]2O` ? Thanks!
> 100 µM

====

# System: PC-3 prostate
# Experimental Details: NCI tumour cell line growth inhibition, 48 h
Consider the following molecules and their measured TGI readings.

Recall the reported TGI of `N#CCc1nc(-c2ccccc2)n[nH]1` on PC-3 prostate and write it down.
> 100 µM

Provide TGI, tested on PC-3 prostate, for `O=C(O)C(SC1=NNC2(C(=O)N1)c1ccccc1-c1ccccc12)SC1=NNC2(C(=O)N1)c1ccccc1-c1ccccc12` .
> 10 µM

====

# Test system: TK-10 renal
# Experimental Details: NCI tumour cell line growth inhibition, 48 h
Measured Quantity: TGI

Recorded TGI, per entry:
Cc1cc(-c2nc3ccccc3s2)ccc1NC(=O)[C@@H](N)CCCCN : 23.2 µM
CC(=O)Oc1cc(C(F)(F)F)ccc1C(=O)OC1(C)OC(=O)c2ccc(C(F)(F)F)cc2O1 (stereo unspecified) : > 100 µM
COc1cc2cc(Oc3ccc(NC(=O)c4cc(C(F)(F)F)cc(C(F)(F)F)c4)cc3)c(C)nc2cc1OC : > 50 µM
CC1=C(C#N)C(=O)CC(c2ccc(Cl)cc2)N(C)N1 (stereo unspecified) : > 100 µM
COc1ccc(-c2c3c([nH]c(=S)c2C#N)CC(C)(C)CC3=O)cc1 : > 100 µM

Provide only the value of recorded TGI for CC12CCC3C(CCC4CC(OC(=O)Cc5ccc(N(CCCl)CCCl)cc5)CCC43C)C1CCC(=O)N2 (stereo unspecified)
35.5 µM

Input `N#CCCN1C/C(=C/c2ccc(Br)cc2)C(=O)/C(=C/c2ccc(Br)cc2)C1` , output reported TGI.
5.44 µM

Provide one value: measured TGI of `CCNC(=O)/C(=C/c1ccc(OC)cc1)c1cc(OC)c(OC)c(OC)c1`
> 69.7 µM

State, in one line, measured TGI of CC(C)=CCC/C(C)=C/COC(C)(C)C1=CCC(C)CC1 (stereo unspecified) (tested in a mixture with another compound)
> 100 µM

Using the record for `COc1cc(/C=C2\[C@H]3c4c(c(OC)c(C)c(OC)c4OC)CC(C(=O)N2Cc2ccccc2)N3C)c(OC)c(C)c1OC` , state its measured TGI.
79.2 µM

Please report TGI for the following compound: `O=C(O)c1cc(-c2ccc3c(O)c(O)ccc3c2)ccc1O`
> 75 µM

====

# Test system: SR leukemia
# Experimental Details: NCI tumour cell line growth inhibition, 48 h
Measured Quantity: TGI (µM)
Reply with just the number (in µM).

Quick one: give measured TGI for `Cn1c(=O)c2c(nc(C(=N)SCC(=O)O)n2C)n(C)c1=O`
80.2

Consider the molecule `CCCc1cc(=O)n2c(C(=O)Nc3ccc(Cl)cc3C)c(C(=O)Nc3ccc(F)cc3)sc2n1` and give its recorded TGI.
3.75

Identify measured TGI corresponding to `COC(=O)c1cc2c(o1)-c1nccc3c1c(nc1ccccc13)C2=O`
2.51

Identify TGI associated with the molecule `COc1ccc(-c2nccn2-c2ccc(OC)cc2)cc1`
30.8

Give recorded TGI. `Oc1[nH]c2ccc(Br)cc2c1N=NC(=S)Nc1ccc(F)cc1`
12.2

Identify measured TGI associated with `Cc1cc(Nc2nc(-c3cn(-c4ccc(Cl)cc4)nn3)nc3ccccc23)n[nH]1`
40

For the molecule CC(C)(C)[Si](C)(C)OC1[C@@H](CNC(=O)NC(=O)CCl)O[C@@H](n2cnc3c(N)ncnc32)[C@H]1O[Si](C)(C)C(C)(C)C (some centres not stated) , give its reported TGI.
0.562

====

# System: NCI-H23 lung
# Experimental Details: NCI tumour cell line growth inhibition, 48 h
Measured Quantity: TGI

Here are 2 molecules together with their reported answers.
COc1cc2nc(-c3cccs3)oc(=O)c2cc1OC : > 100 µM
COc1cc2c(cc1O)CCN[C@]21CS[C@@H]2c3c(OC(C)=O)c(C)c4c(c3[C@H](COC1=O)N1[C@@H]2[C@H]2c3c(cc(C)c(OC)c3O)C[C@@H]([C@@H]1O)N2C)OCO4 : 0.0057 µM

Fetch value of TGI on NCI-H23 lung for `COc1cc(-c2cc(=O)c3cc4c(=O)cc(-c5cc(OC)c(OC)c(OC)c5)oc4cc3o2)cc(OC)c1OC` .
> 67.8 µM

Please indicate recorded TGI of `COc1cc2c(cc1OC)[C@H]1CN3CCC[C@H]3C=C1c1ccc(OC)c(O)c1-2` measured with NCI-H23 lung.
0.00184 µM
